- SYSTEM_UNDER_TEST: T1, human LAG-3 on cells (HEK293-hLAG-3 stable cell line) (human, UniProt P18627 23-525)
- T1 sequence: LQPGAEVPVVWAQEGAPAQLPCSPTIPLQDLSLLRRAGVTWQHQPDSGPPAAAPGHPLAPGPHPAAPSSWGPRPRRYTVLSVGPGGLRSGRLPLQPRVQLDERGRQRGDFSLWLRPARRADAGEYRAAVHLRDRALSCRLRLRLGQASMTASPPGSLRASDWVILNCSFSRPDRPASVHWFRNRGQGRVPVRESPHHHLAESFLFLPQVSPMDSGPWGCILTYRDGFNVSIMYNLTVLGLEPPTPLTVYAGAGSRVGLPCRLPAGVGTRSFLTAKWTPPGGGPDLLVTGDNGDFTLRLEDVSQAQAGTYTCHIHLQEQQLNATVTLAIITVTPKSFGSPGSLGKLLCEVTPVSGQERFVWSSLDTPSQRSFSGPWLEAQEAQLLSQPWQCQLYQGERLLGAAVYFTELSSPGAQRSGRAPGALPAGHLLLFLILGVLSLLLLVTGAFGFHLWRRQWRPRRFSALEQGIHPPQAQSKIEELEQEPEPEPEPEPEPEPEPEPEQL
- TEST_NAME: cell-based or functional assay
OBSERVATION_TYPE: IL-2 production, antigen-specific T lymphocyte stimulation test, 0.4 ug/ml, N = 2 (pg/mL)

>  <BINDER>
409D4E10 mouse-human chimeric antibody (antibody, V domains shown, also called mAb112-409D4E10) VH: QVQLQQSGAELVRPGASVTLSCKASGNTFTDYEMHWVKQTPVHGLEWIGATDPETDNTAYNQKFKGKAILTTDKSSSTAYMELRSLTSEDSAVYYCITSGWNDWGQGTSLTVSS VL: DIKMTQSPSSMYASLGERVTITCKASQDINSYLSWFQQKPGKSPKTLIYRANRLLDGVPSRFSGSGSGQDYSLTISSLEYEDMGIYYCLQYNEFPYTFGGGTKLEIK

>  <MEAS_VALUE>
678

$$$$
>  <BINDER>
105F1E10 mouse-human chimeric antibody (antibody, V domains shown, also called mAb009-105F1E10) VH: EVQLQQSGPELVKPGASVKMSCRASGYTFTDFKMHWMKQSHGKSLEWIGYIAPNNGGTAYNQKFRGKATLTVNESSNTAYMELRSLTSEDSAVYYCVDWDDVDYWGQGTTLTVSS VL: DIKMTQSPSSMYASLGERVTITCKASQDINSYLSWFQQKSGKSPKTLIYRANRLVDGVPSRFSGSGSGQDYSLTISSLEYEDMGIYYCLQYVEFPLTFGAGTKLELK

>  <MEAS_VALUE>
757

$$$$
>  <BINDER>
556F6B8 mouse-human chimeric antibody (antibody, V domains shown, also called mAb123-556F6B8; 556F8B8) VH: RVQLKQSGPGLVQPSQSLSITCTVSGFSLIKYGVHWVRQSPGEGLEWLGVIWRGGITDYNAAFMSRLSITKDNSKSQVFFKMNSLQADDTAIYYCAKWDGPLAMDYWGQGTSVTVSS VL: DIVMTQSHKFLSTSVGDRVSITCKASQDVGTTVAWYQQKPGQSPKLLIYWASTRHTGVPDRFTGSGSGTDFTLTISNVQSEDLADYFCQQYSSYPYTFGGGTKLEIK

>  <MEAS_VALUE>
599

$$$$
>  <BINDER>
405B8H3 mouse-human chimeric antibody (antibody, V domains shown, also called mAb103-405B8H3) VH: QVQLQQSGAELVRPGASVTLSCKASGYTFTDYEMHWVKQTPVHGLEWIGATDPETGNSAYNQKFKGKAIMTADKSSSTAYMELRSLTSEDSAVYYCISTGWNDWGQGTSLTVSS VL: DIKMTQSPSSMYASLGERVTITCKASQDINSYLSWFQQKPGKSPKTLIYRADRLLDGVPSRFSGSGSGQDYSLTISSLEYGDMGIYYCLQYDEFPYTFGGGTKLEIK

>  <MEAS_VALUE>
986

$$$$
>  <BINDER>
409B11E12 mouse-human chimeric antibody (antibody, V domains shown, also called mAb104-409B11E12) VH: QVQLQQSGAELVRPGASVTLSCKASGYTFTDYEMHWVKQTTVHGLEWIGATDPETSYSAYNQKFKGKAILTADKSSSTAYMELRSLTSEDSAVYYCIATGWNDWGQGTSLTVSS VL: DLKMTQSPSSMYASLGERVTITCKASQDINSYLSWFQQKPGKSPKTLIYRANRLLDGVPSRFSGSGSGQDYSLTISSLEYEDMGIYYCLQYDEFPYTFGGGTKLEIK

>  <MEAS_VALUE>
954

$$$$
